Sourced from patent US20240343729A1

Consider the following molecules and their measured PDE10A2 Phosphate Sensor Enzyme Assay (pIC50) readings.
# measurement target: Human PDE10A2 (Homo sapiens (Human))
# Sequence (Q9Y233 267-1055): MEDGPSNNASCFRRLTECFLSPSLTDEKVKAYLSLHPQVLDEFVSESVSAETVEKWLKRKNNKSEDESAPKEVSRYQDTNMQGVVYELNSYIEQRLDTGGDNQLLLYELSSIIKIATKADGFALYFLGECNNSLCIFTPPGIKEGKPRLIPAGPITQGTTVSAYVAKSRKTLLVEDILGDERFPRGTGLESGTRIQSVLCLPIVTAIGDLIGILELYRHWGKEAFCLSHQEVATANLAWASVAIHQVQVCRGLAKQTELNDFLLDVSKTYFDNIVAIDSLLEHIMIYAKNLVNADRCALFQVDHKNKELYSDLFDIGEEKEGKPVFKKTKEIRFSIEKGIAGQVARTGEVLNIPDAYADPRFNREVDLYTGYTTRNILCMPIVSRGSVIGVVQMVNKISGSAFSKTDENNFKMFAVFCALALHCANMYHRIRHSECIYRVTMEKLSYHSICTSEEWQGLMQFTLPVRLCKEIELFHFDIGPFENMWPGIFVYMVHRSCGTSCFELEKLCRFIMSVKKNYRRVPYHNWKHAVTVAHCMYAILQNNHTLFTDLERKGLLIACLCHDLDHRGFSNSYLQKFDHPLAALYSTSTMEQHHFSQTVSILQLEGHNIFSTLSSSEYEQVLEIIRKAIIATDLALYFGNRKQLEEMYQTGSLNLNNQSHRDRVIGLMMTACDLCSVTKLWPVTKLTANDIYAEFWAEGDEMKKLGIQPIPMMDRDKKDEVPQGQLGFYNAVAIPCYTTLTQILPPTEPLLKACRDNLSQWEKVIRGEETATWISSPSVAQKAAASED
# experiment description: biochemical
# Assay type: biochemical
# condition parameters: human PDE10A2 0.25 nM, cGMP 3 μM
Give the figure by itself; no unit, no explanation.

>>> value("C[C@@H]1COCCN1c1nc(C#Cc2nc(-c3ccccc3)c[nH]2)nc2c1ncn2C [Example 29]")
9.92
>>> value("Cn1cc(-c2ccccc2)nc1C#Cc1nc(N2C[C@H]3COC[C@H]3C2)c2cnn(C3COC3)c2n1 [Example 19]")
9.41
>>> value("Cn1cc(-c2ccccc2)nc1C#Cc1nc(N2C[C@H]3COC[C@H]3C2)c2ncn(C)c2n1 [Example 20]")
9.53
>>> value("Cn1cc(-c2ccccc2)nc1C#Cc1nc(N2CC3(COC3)C2)c2cnn(C)c2n1 [Example 3]")
9.99
>>> value("Cn1cnc2c(N3C[C@H]4COC[C@H]4C3)nc(C#Cc3nc(-c4cccnc4)c[nH]3)nc21 [Example 31]")
8.95

# evaluate next
Request: Using the record for C[C@@H]1COCCN1c1nc(C#Cc2nc(-c3ccccc3)cn2C)nc2c1CCNC2 [Example 12] , state its measured PDE10A2 Phosphate Sensor Enzyme Assay (pIC50).
Response: 10.40
